activation at 0.1 µM values, listed per item
- measurement_target: GABAA R (α5β2γ2) (Homo sapiens, UniProt P18507+P31644)
- Construct: expressed in transfected cells
- Sequence (P31644 32-462): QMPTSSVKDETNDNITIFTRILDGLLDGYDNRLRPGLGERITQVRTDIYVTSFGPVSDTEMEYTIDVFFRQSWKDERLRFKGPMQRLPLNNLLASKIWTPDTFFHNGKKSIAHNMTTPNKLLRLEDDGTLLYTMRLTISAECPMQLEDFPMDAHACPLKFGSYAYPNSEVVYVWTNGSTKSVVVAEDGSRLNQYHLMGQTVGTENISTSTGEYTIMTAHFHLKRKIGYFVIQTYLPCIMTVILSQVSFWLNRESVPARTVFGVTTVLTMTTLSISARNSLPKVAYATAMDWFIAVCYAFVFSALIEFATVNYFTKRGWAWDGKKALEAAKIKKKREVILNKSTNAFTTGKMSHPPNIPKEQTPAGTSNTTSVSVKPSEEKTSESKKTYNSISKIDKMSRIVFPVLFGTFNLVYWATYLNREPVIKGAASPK
- Sequence (P47870 25-512 partner limits assumed): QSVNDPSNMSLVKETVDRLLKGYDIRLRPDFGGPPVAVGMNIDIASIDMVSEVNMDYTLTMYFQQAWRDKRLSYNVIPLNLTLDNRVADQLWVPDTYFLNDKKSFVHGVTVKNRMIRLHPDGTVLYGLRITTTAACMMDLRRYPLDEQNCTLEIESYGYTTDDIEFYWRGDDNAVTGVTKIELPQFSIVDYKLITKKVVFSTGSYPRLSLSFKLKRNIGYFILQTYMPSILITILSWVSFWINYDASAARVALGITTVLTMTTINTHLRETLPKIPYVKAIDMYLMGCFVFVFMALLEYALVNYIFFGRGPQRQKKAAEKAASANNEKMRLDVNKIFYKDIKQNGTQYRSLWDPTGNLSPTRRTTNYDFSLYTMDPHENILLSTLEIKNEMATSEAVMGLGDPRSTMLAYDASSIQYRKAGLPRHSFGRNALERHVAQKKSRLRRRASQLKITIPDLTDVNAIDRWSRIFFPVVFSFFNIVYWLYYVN
- Sequence (P18507 40-475): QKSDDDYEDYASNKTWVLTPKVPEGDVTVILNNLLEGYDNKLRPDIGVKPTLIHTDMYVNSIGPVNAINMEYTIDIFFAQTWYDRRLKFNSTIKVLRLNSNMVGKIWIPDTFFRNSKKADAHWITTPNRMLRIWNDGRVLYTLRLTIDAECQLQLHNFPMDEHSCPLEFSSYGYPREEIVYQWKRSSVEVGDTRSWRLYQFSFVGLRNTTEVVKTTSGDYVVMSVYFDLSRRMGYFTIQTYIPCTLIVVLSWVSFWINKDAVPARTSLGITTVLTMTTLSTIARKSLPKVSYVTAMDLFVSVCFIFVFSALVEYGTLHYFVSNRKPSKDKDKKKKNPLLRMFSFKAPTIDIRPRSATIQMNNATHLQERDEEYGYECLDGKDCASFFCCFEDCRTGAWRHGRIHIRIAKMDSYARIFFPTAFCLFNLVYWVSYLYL
- assay_remarks: Positive allosteric modulator activity: potentiation of EC20 GABA current in oocytes
- Type: cell-based
- experimental_conditions: read-out: GABA α5 Functional Data: potentiation
- Procedure: On day 1, 1 ng/32 nL of GABAA α5β2γ2 cDNA was injected into one oocyte. Test starts on day 2. The cDNA injected to the oocytes was a mix of alpha, beta and gamma, their ratio is 1:1:10 (by weight) and the total weight of the mixed 3 subunits to be injected in one oocyte was 1 ng in 32 nl volume. The injected oocytes can also be tested on day 3. In such case, the cDNA amount injected to the oocytes should be reduced by 20%. […]

Examples with their reported activation at 0.1 µM follow.
Clc1ccc2c(c1)-c1nn(CC3CC3)cc1Cc1c(-c3ncco3)ncn1-2 [Compound 172]: 5 to 20%
COc1ccc2c(c1)-c1nn(CC3COC3)cc1Cc1c(-c3nc(C4CC4)no3)ncn1-2 [Compound 226]: 5 to 20%
CC(C)c1noc(-c2ncn3c2Cc2cn(C)nc2-c2cc(Cl)ccc2-3)n1 [Compound 103]: 5 to 20%
CC(C)(C)C#Cc1ncn2c1Cc1cn[nH]c1-c1cc(Cl)ccc1-2 [Compound 63]: 20 to 50%

Q: For Clc1ccc2c(c1)-c1[nH]ncc1Cc1c(C#Cc3ccccn3)ncn1-2 [Compound 94] , what is its reported activation at 0.1 µM?
A: 20 to 50%

Q: So what's the measured activation at 0.1 µM for this one? COc1ccc2c(c1)-c1[nH]ncc1Cc1c(-c3nc(C)no3)ncn1-2 [Compound 9]
A: 5 to 20%

Q: Quick one: activation at 0.1 µM for CC(C)c1noc(-c2ncn3c2Cc2cn(CC4CCOCC4)nc2-c2cc(Cl)ccc2-3)n1 [Compound 251] ?
A: 5 to 20%

---

- measurement_target: GABAA R (α5β2γ2) (Homo sapiens, UniProt P18507+P31644)
- Construct: expressed in transfected cells
- assay_remarks: Positive allosteric modulator activity: potentiation of EC20 GABA current in oocytes
- Type: cell-based
- experimental_conditions: read-out: GABA α5 Functional Data: potentiation, @ 100 nM, EC20 GABA; ranges of the column heads
Quick list: activation at 0.1 µM per entry.

Solved entries:
COCc1nc(-c2ncn3c2Cc2cn(C)nc2-c2cc(Cl)ccc2-3)no1 [Compound 155]: 20 to 50%
COc1ccc2c(c1)-c1nn(C3CCOC3)cc1Cc1c(-c3nc(C(F)(F)F)no3)ncn1-2 (stereo not shown) [Compound 263]: 5 to 20%
Cc1noc(-c2ncn3c2Cc2cn(C(C)C)nc2-c2cc(Cl)ccc2-3)n1 [Compound 160]: 20 to 50%

Attention now turns to another entry.
Q: Look up activation at 0.1 µM: Clc1ccc2c(c1)-c1[nH]ncc1Cc1c(-c3nc(C4CCCCC4)no3)ncn1-2 [Compound 123]
A: 5 to 20%

---

- measurement_target: GABAA R (α5β2γ2) (Homo sapiens, UniProt P18507+P31644)
- Construct: expressed in transfected cells
- assay_remarks: Positive allosteric modulator activity: potentiation of EC20 GABA current in oocytes
- Type: cell-based
- experimental_conditions: read-out: GABA α5 Functional Data: potentiation, @ 100 nM, EC20 GABA; ranges of the column heads
readout_type: activation at 0.1 µM

COc1ccc2c(c1)-c1nn(C)cc1Cc1c(-c3nc(C(F)(F)F)no3)ncn1-2 [Compound 119]: 5 to 20%
COc1ccc2c(c1)-c1[nH]ncc1Cc1c(-c3nc(C(F)(F)F)no3)ncn1-2 [Compound 45]: 20 to 50%
COc1ccc2c(c1)-c1nn(C)cc1Cc1c(-c3nnc(C)o3)ncn1-2 [Compound 290]: 20 to 50%
CC(C)n1cc2c(n1)-c1cc(Cl)ccc1-n1cnc(-c3noc(C4CC4)n3)c1C2 [Compound 149]: 20 to 50%
Clc1ccc2c(c1)-c1nn(CC3CCCO3)cc1Cc1c(-c3noc(C4CCOC4)n3)ncn1-2 (stereo not drawn) [Compound 308]: 20 to 50%

Continue with the molecule presented below.
Q: What value of measured activation at 0.1 µM is listed for COCC1COC(c2ncn3c2Cc2cn(C)nc2-c2cc(Cl)ccc2-3)=N1 (stereo not drawn) [Compound 189] ?
A: 20 to 50%
